# EC50 annotations
tested on: human keratinocytes (HaCaT cells); experiment: Cytotoxicity, MTS assay; settings: 24 h
Peptide text beside a SMILES is read from it.
State the answer as a number, implicitly in µM.

molecule: CC[C@H](C)[C@H](NC(=O)[C@H](CCCNC(=N)N)NC(=O)[C@H](CCCNC(=N)N)NC(=O)[C@H](CC(C)C)NC(=O)[C@@H](N)Cc1c[nH]c2ccccc12)C(=O)N[C@@H](CCCCN)C(=O)N[C@@H](C)C(=O)N[C@@H](Cc1c[nH]c2ccccc12)C(=O)N[C@@H](CC(C)C)C(=O)N[C@@H](CCCNC(=N)N)C(=O)N[C@@H](CCCNC(=N)N)C(=O)N[C@@H](CCCCN)C(=O)N[C@@H](CCCNC(=N)N)C(=O)N[C@@H](CCCCN)C(=O)O [RR3] (H-WLRRIKAWLRRKRK-OH; N-terminus and C-terminus assumed)
tested_target: human keratinocytes (HaCaT cells)
EC50 / µM: 128

QUERY: Requested read-out: EC50. Entry: CC[C@@H](C)[C@@H](NC(=O)[C@@H](CCCNC(=N)N)NC(=O)[C@@H](CCCNC(=N)N)NC(=O)[C@@H](CC(C)C)NC(=O)[C@@H](Cc1c[nH]c2ccccc12)NC(=O)[C@@H](C)NC(=O)[C@@H](CCCCN)NC(=O)[C@H](NC(=O)[C@@H](CCCNC(=N)N)NC(=O)[C@@H](CCCNC(=N)N)NC(=O)[C@@H](CC(C)C)NC(=O)[C@H](N)Cc1c[nH]c2ccccc12)[C@H](C)CC)C(=O)N[C@H](CCCCN)C(=O)N[C@H](C)C(N)=O [D-RR4]
RESULT: 64
